- System: aggregation induced by 1-PAF in rabbit platelets
- Test Method Notes: Effect on the aggregation induced by 1-PAF in rabbit platelets (washed platelets)
- Format: cell-based, rabbit (male, albino, New Zealand)
- Measurement Parameters: Oryctolagus cuniculus, Platelet, 37° C., 5 min preincubation, 1-PAF=1.92 nM, compounds 10 to 0.1 micM, mean of three experiments in duplicate
pIC50: −log10 of the molar value.
Readout Name: pIC50

Solved entries:
Report pIC50, nothing else, for this compound: COC(=O)C1=C(C)NC(C)=C(C(=O)OCCCOc2ccccc2)C1C (stereo not drawn) [Example 6]
5.52

Please report pIC50 for the following compound: COC(=O)C1=C(C)NC(C)=C(C(=O)OCCS(=O)(=O)c2ccc(C)cc2)C1C (stereo not drawn) [Example 2]
5.96

Provide measured pIC50 value, entry: COC(=O)C1=C(C)NC(C)=C(C(=O)OCCCOc2ccc(Cl)c(Cl)c2)C1C (stereo not drawn) [Example 41]
5.57

(a) CCOC(=O)C1=C(C)NC(C)=C(C(=O)OCCCOc2ccc3ccccc3c2)C1C (stereo not drawn) [Example 152]
(b) CCC1C(C(=O)OC)=C(C)NC(C)=C1C(=O)OCCCSc1ccc(Cl)cc1 (stereo not drawn) [Example 164]
(c) CCOC(=O)C1=C(C)NC(C)=C(C(=O)OCCCSc2ccc(Cl)c(Cl)c2)C1C (stereo not drawn) [Example 46]
(d) COC(=O)C1=C(C)NC(C)=C(C(=O)OCCCOc2ccc(Oc3ccccc3)cc2)C1C (stereo not drawn) [Example 139]
Arrange these 4 compounds in increasing order of pIC50. Thanks in advance for listing the labels in the requested order.
a, c, d, b
(a: 5.52, c: 5.85, d: 6.15, b: 6.49)

* * *

- Tested on: aggregation induced by 1-PAF in rabbit platelets
- Test Method Notes: Effect on the aggregation induced by 1-PAF in rabbit platelets (washed platelets)
- Format: cell-based, rabbit (male, albino, New Zealand)
- Measurement Parameters: Oryctolagus cuniculus, Platelet, 37° C., 5 min preincubation, 1-PAF=1.92 nM, compounds 10 to 0.1 micM, mean of three experiments in duplicate
Readout Name: IC50 (µM)

These solved cases illustrate the format of a correct answer.
Tell me IC50 of COC(=O)C1=C(C)NC(C)=C(C(=O)OCCCOc2ccc(OC)cc2)C1C (centres unmarked) [Example 61] when tested on aggregation induced by 1-PAF in rabbit platelets.
2

Answer briefly: IC50 recorded on aggregation induced by 1-PAF in rabbit platelets for COC(=O)C1=C(C)NC(C)=C(C(=O)OCCOc2cccc3ccccc23)C1C (centres unmarked) [Example 113]
3

Provide IC50, recorded with aggregation induced by 1-PAF in rabbit platelets, of CCOC(=O)C1=C(C)NC(C)=C(C(=O)OCCCOc2ccc(-c3ccccc3)cc2)C1C (centres unmarked) [Example 66]
2.4

(A) COC(=O)C1=C(C)NC(C)=C(C(=O)OCCCSc2ccc(NC(C)=O)cc2)C1C (centres unmarked) [Example 30]
(B) COC(=O)C1=C(C)NC(C)=C(C(=O)OCCOc2ccc(Oc3ccccc3)cc2)C1C (centres unmarked) [Example 140]
(C) COC(=O)C1=C(C)NC(C)=C(C(=O)OCCOc2ccc(OC)cc2)C1C (centres unmarked) [Example 62]
Kindly order the items shown according to IC50, from the highest value down. Please reply with the labels ordered as requested. Many thanks.
C, A, B
(C: 10 µM, A: 3.1 µM, B: 2 µM)
